Assay: Selectivity index, ratio of IC50 for human bronchial epithelial cells to IC50 for human CL1-5 cells
Type: toxicity
Details: human bronchial epithelial cells versus CL1-5 cells, read-out: Ratio IC50
readoutName: selectivity ratio

I would be grateful if you could share the reported selectivity ratio for "Cc1oc2c(c1C(=O)NCCCn1ccnc1)C(=O)c1ccccc1C2=O" . > 10

----------
Test: Selectivity index, ratio of IC50 for human bronchial epithelial cells to IC50 for human CL1-0 cells
Type: toxicity
Conditions: human bronchial epithelial cells versus CL1-0 cells, read-out: Ratio IC50
readoutName: selectivity ratio

I would be grateful if you could share the reported selectivity ratio for "Cc1oc2c(c1C(=O)NCCCn1ccnc1)C(=O)c1ccccc1C2=O" . > 10

----------
Assay: Selectivity index, ratio of IC50 for human bronchial epithelial cells to IC50 for human NCI-H1975 cells
Assay type: toxicity
Settings: human bronchial epithelial cells versus NCI-H1975 cells, read-out: Ratio IC50
readoutName: selectivity ratio

I would be grateful if you could share the reported selectivity ratio for "Cc1oc2c(c1C(=O)NCCCn1ccnc1)C(=O)c1ccccc1C2=O" . > 10

----------
Assay: Selectivity index, ratio of IC50 for human bronchial epithelial cells to IC50 for human PC9 cells
Type: toxicity
Conditions: human bronchial epithelial cells versus PC9 cells, read-out: Ratio IC50
readoutName: selectivity ratio

I would be grateful if you could share the reported selectivity ratio for "Cc1oc2c(c1C(=O)NCCCn1ccnc1)C(=O)c1ccccc1C2=O" . > 10

----------
Assay: Selectivity index, ratio of IC50 for human bronchial epithelial cells to IC50 for human PC9IR cells
Assay type: toxicity
Conditions: human bronchial epithelial cells versus PC9IR cells, read-out: Ratio IC50
readoutName: selectivity ratio

I would be grateful if you could share the reported selectivity ratio for "Cc1oc2c(c1C(=O)NCCCn1ccnc1)C(=O)c1ccccc1C2=O" . > 10

----------
System: PC-9
Assay: Antiproliferative activity against human PC9 cells assessed as reduction in cell viability incubated for 72 hrs by SRB assay
Assay type: functional, cell-based
Settings: PC-9, 72 h
pIC50: −log10 of the molar value.
readoutName: pIC50

I would be grateful if you could share the reported pIC50 for "Cc1oc2c(c1C(=O)NCCCn1ccnc1)C(=O)c1ccccc1C2=O" . > 7.00
